Tested on: barnyardgrass (Echinochloa crus-galli, ECHCG)
Assay: Post-emerge greenhouse herbicide activity screening, phytotoxicity rating
Assay type: in vivo
Details: 250 g ai/ha, 14 days after application
measurement.type: ECHCG phytotoxicity rating (0-100 scale)
Write the value as a bare number.

Below, each entry is followed by its recorded ECHCG phytotoxicity rating (0-100 scale) result.
1) Cn1c(C(F)(F)F)cc(=O)n(-c2cc(Oc3ccccc3)c(Cl)cc2F)c1=S    65
2) Cn1c(=S)n(C)c(=O)n(-c2cc(Oc3ccccc3[N+](=O)[O-])c(Cl)cc2F)c1=O    25
3) Cn1c(C(F)(F)F)cc(=O)n(-c2cc(Oc3ccccc3C#N)c(Cl)cc2F)c1=S    0

The reported ECHCG phytotoxicity rating (0-100 scale) of the compound `Cn1c(C(F)(F)F)cc(=O)n(-c2cc(Oc3ncccn3)c(Cl)cc2F)c1=S` was 100

Query `Cn1c(C(F)(F)F)cc(=O)n(-c2cc(Oc3ncccc3C(F)(F)F)c(Cl)cc2F)c1=S` yields ECHCG phytotoxicity rating (0-100 scale) of 0

compound `COc1ccc(Oc2cc(-n3c(=O)cc(C(F)(F)F)n(C)c3=S)c(F)cc2C#N)cc1` , ECHCG phytotoxicity rating (0-100 scale) observed: 0

Looking up `Cn1c(=S)n(C)c(=O)n(-c2cc(Oc3ccccc3)c(Cl)cc2F)c1=O` , I see its ECHCG phytotoxicity rating (0-100 scale) listed as 35

----------
System: large crabgrass (Digitaria sanguinalis, DIGSA)
Assay: Pre-emerge greenhouse herbicide activity screening, phytotoxicity rating
Assay type: in vivo
Details: 250 g ai/ha, 14 days after application
Procedure: A standard greenhouse herbicide activity screening system was used to evaluate the herbicidal efficacy and crop safety of these test compounds. […] At 14 days after application of the test materials, phytotoxicity ratings were recorded. […]
measurement.type: DIGSA phytotoxicity rating (0-100 scale)
Lab note: jot the number down without any unit.

1) N#Cc1c(-c2cc(Oc3ncccn3)c(Cl)cc2F)nn2c1CCCC2    100
2) Cn1nc(-c2cc(Oc3ncccn3)c(Cl)cc2F)c(=O)n(C)c1=S    100
3) Cn1c(=S)n(C)c(=O)n(-c2cc(Oc3ccccc3N)c(Cl)cc2F)c1=O    80

Kindly note the recorded DIGSA phytotoxicity rating (0-100 scale) for `COc1ccc(Oc2cc(-n3c(=O)cc(C(F)(F)F)n(C)c3=S)c(F)cc2C#N)cc1` , which is 99

----------
Tested on: field corn (Zea mays L., var. Dekalb 535, CORN)
Experiment: Pre-emerge greenhouse screening, crop safety (phytotoxicity rating)
Assay type: in vivo
Details: 125 g ai/ha, 14 days after application
measurement.type: CORN crop damage, phytotoxicity rating (0-100 scale)
Respond numerically, and do not add a unit to the figure.

1) COc1ccccc1Oc1cc(-n2c(=O)cc(C(F)(F)F)n(C)c2=S)c(F)cc1C#N [Compound 1-71]    0

Briefly, CORN crop damage, phytotoxicity rating (0-100 scale) measured for Cn1c(C(F)(F)F)cc(=O)n(-c2cc(Oc3ncccn3)c(Cl)cc2F)c1=S [Compound 1-1] : 100

CORN crop damage, phytotoxicity rating (0-100 scale) reported for this molecule Cn1c(C(F)(F)F)cc(=O)n(-c2cc(Oc3ccccc3O)c(C#N)cc2F)c1=S [Compound 1-70] : 15

Sure, the documented CORN crop damage, phytotoxicity rating (0-100 scale) for Cn1c(C(F)(F)F)cc(=O)n(-c2cc(Oc3ncccc3C(F)(F)F)c(Cl)cc2F)c1=S [Compound 1-15] is 8

# CORN crop damage, phytotoxicity rating (0-100 scale) (molecule: Cn1c(=S)n(C)c(=O)n(-c2cc(Oc3ncccn3)c(Cl)cc2F)c1=O [Compound 2-1] ) is 50
